Parameter viability: see the listing below.
test_summary: ovarian cancer cell viability with rucaparib, profiling panel, oncology-focused library, rucaparib conditional (AID 1508598)
assay_context: patient-derived ovarian cancer cells, CellTiter-Glo viability, 144 h; at 0.0781 µM; OCI-P5x cells; with rucaparib 20 µM; stronger effect = lower value; 100% = cells with rucaparib alone
# number only, unit % dropped from output

{"columns": ["structure_notation", "measured_parameter", "value_reported"],
 "data": [
  ["CCN(CC)CCNC(=O)c1c(C)[nH]c(/C=C2\\C(=O)Nc3ccc(F)cc32)c1C", "viability", 95],
  ["COc1cc(Nc2c(C#N)cnc3cc(OCCCN4CCN(C)CC4)c(OC)cc23)c(Cl)cc1Cl", "viability", 94.7],
  ["COc1nc(N)nc2c1ncn2[C@@H]1O[C@H](CO)[C@@H](O)[C@@H]1O", "viability", 94.2]
]}

stdin: Which measured viability value corresponds to `Nc1ncn([C@H]2C[C@H](O)[C@@H](CO)O2)c(=O)n1` ?
stdout: 96.6

stdin: Which measured viability value corresponds to `O=C(O[C@@H]1Cc2c(O)cc(O)cc2O[C@@H]1c1cc(O)c(O)c(O)c1)c1cc(O)c(O)c(O)c1` ?
stdout: 96.1

stdin: Which measured viability value corresponds to `O=C(CCCCCCC(=O)Nc1ccccc1)NO` ?
stdout: 96.2

stdin: Which measured viability value corresponds to `Nc1nc(Cl)nc2c1ncn2[C@@H]1O[C@H](CO)[C@@H](O)[C@@H]1F` ?
stdout: 111

stdin: Which measured viability value corresponds to `Cc1nc(Nc2ncc(C(=O)Nc3c(C)cccc3Cl)s2)cc(N2CCN(CCO)CC2)n1` ?
stdout: 17

stdin: Which measured viability value corresponds to `CCCC(CCC)C(=O)O` ?
stdout: 121

stdin: Which measured viability value corresponds to `COc1c(C)c2c(c(O)c1C/C=C(\C)CCC(=O)OCCN1CCOCC1)C(=O)OC2` ?
stdout: 107

---

test_summary: stimulators of nuclear beta-catenin in C2C12, primary screen, imaging, WNT3A-conditioned medium, mouse C2C12, NPC library (AID 1117326)
assay_context: stimulation, at 2 µM, stronger effect = higher value
measured_parameter: nuclear beta-catenin stimulation (%)
# number only, unit % dropped from output

Solved entries:
{"columns": ["compound", "value_reported"],
 "data": [
  ["NC(=O)NS(=O)(=O)c1ccc(N)cc1", 0.3],
  ["C/C(=N\\O)[C@@H](C)NCC(C)(C)CN[C@H](C)/C(C)=N/O", -1.3],
  ["CCN[C@H]1C[C@H](C)S(=O)(=O)c2sc(S(N)(=O)=O)cc21", 1.7],
  ["Cc1cc(-c2ccc(N=Nc3c(S(=O)(=O)O)cc4cc(S(=O)(=O)O)cc(N)c4c3O)c(C)c2)ccc1N=Nc1c(S(=O)(=O)O)cc2cc(S(=O)(=O)O)cc(N)c2c1O", -1.8],
  ["CC1(C)CC1C(=O)NC(=CCCCCSCC(N)C(=O)O)C(=O)O (stereo not given)", -0.6]
]}

stdin: Which measured nuclear beta-catenin stimulation value corresponds to `CCOc1ccccc1OCCN[C@H](C)Cc1ccc(OC)c(S(N)(=O)=O)c1` ?
stdout: 3

stdin: Which measured nuclear beta-catenin stimulation value corresponds to `CC(C)=CCCC(C)=CCCC(C)=CCCC=C(C)CCC=C(C)CCC=C(C)C` ?
stdout: 1.7

stdin: Which measured nuclear beta-catenin stimulation value corresponds to `CCCCCCCCCCCCCCCCCCCCCCO` ?
stdout: 2.9

stdin: Which measured nuclear beta-catenin stimulation value corresponds to `CN(Cc1ccc(C(C)(C)C)cc1)Cc1cccc2ccccc12` ?
stdout: -0.7

stdin: Which measured nuclear beta-catenin stimulation value corresponds to `CC(C)(C)C(=O)Oc1ccc(S(=O)(=O)Nc2ccccc2C(=O)NCC(=O)O)cc1` ?
stdout: 1.7

Values from PubChem BioAssay
